Tested on: TTR
Assay: TTR editing in primary human hepatocytes transfected with Spy Cas9 protein (RNP) loaded with dgRNAs (Table 8)
Format: cell-based
Conditions: dgRNA transfected with Spy Cas9 protein (RNP)
Reported Endpoint: Avg % Edit (%)
Give just the number in %; leave the unit off.

These recorded examples may help you get a feel for the data.
>>> number("CCUCUGCAUGCUCAUGGAAU (tested as dual guide RNA, chemistry not given here) [CR003370]")
20.06
>>> number("AAAGGCUGCUGAUGACACCU (tested as dual guide RNA, chemistry not given here) [CR003353]")
61.54
>>> number("AAAGUUCUAGAUGCUGUCCG (tested as dual guide RNA, chemistry not given here) [CR003346]")
4.11

Ask: Return Avg % Edit measured with TTR given this sequence: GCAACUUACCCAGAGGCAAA (tested as dual guide RNA, chemistry not given here) [CR003356]
Result: 7.53
